# measurement-notes: Antioxidant activity assessed as inhibition of ABTS free radical generation at 17 uM after 20 mins by UV spectrophotometric analysis relative to control
# Type: functional
Calls of active or inactive are those of the source. The rule behind the calls is not given here.
reported-metric: inhibition

# annotated cases, reported inhibition shown
• O=C(C(=O)N1CCC(Cc2ccccc2)CC1)c1c[nH]c2cc(O)ccc12 = 70.7%
• O=C(NC1CCN(CC(=O)c2c[nH]c3ccc(O)cc23)CC1)c1ccc(O)c(O)c1 = > 94.1%
• O=C(CN1CCC(Cc2ccccc2)CC1)c1c[nH]c2cc(O)ccc12 = > 93.9%
• O=C(O)c1cc(O)c(O)c(O)c1 = > 94.1%
• c1ccc2[nH]ccc2c1 = inactive

Given `O=C(C(=O)N1CCC(Cc2ccccc2)CC1)c1c[nH]c2ccc(O)cc12` , state its recorded inhibition.
80.1%

Given `O=C(CN1CCC(Cc2ccccc2)CC1)c1c[nH]c2ccc(O)cc12` , state its recorded inhibition.
> 92.1%

Given `O=C(O)/C=C/c1ccc(O)c(O)c1` , state its recorded inhibition.
71.5%

Given `COc1ccc2[nH]ccc2c1` , state its recorded inhibition.
inactive
